tested on: ATP; assay: switch fluorescence ratio, 500 uM ATP over buffer (Cy3 cluster intensity, sum of 5 cycles each) (fold (ratio)); higher = stronger signal-on switching upon ATP binding; sequences stand for … in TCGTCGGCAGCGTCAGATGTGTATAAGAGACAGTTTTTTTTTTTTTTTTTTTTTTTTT…TC; conditions: aptamer strand: ATP DNA aptamer (quencher-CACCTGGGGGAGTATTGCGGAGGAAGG + anchor), 100 nM annealed; ATP concentration: 500 uM;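 note: ATP exposure 15 min at 22 °C before imaging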
assayEndpoint: switch fluorescence ratio
Reply briefly: the number, and no unit.

   constructsequence  assayvalue
0         TTTAAAGGTT        1.02
1         AAAAAGCTCG       0.985
2         AAGGGAGGGA        1.01
3         AGGAATATAC        1.11
4         TACCCCCGTT        1.36
5         CGTCGCGTAT        1.03

sequence GAGAGGGGCA , switch fluorescence ratio observed: 0.999

Reported switch fluorescence ratio ( TGGATTGGGC ) = 0.973

// GGCCTGGGTA : switch fluorescence ratio value = 1

Per the records, this sequence ( CAAGAGAATT ) has switch fluorescence ratio equal to 0.994

For record TTTACAGAGT the listed switch fluorescence ratio is 1.06

The recorded switch fluorescence ratio for entry ATGATATGGG equals 0.985

Given item TTTTATAT , the value recorded as its switch fluorescence ratio is 0.98

Record GACTGGCACG , field switch fluorescence ratio: 1.03

Per the records, this sequence ( TATGCATTAA ) has switch fluorescence ratio equal to 1.01

GET /value?item= CGGGGAGGGT &field=switch fluorescence ratio returns 0.967

So for CTGTTTTTTT , the logged switch fluorescence ratio turned out to be 0.981
